- assayProcedure: Pharmacokinetic analyses in mouse
- Type: in vivo
- runConditions: mouse, plasma, po, 30 mg/kg, 30 mg/kg p.o.; individual animals; read-out: AUC
measure: AUC (µM·h)
Kindly provide the numeric value in µM·h only, without the unit symbol.

Indicate the recorded AUC value for this molecule: Cc1ncsc1-c1ccc(C(CCC(C)CCN2CCC(c3ccc4c(c3)n(C3CCCC3)c3nc(=O)c5c(Br)cccc5n43)CC2)NC(=O)C2CC(O)CN2C(=O)C(NC(=O)C2(F)CC2)C(C)(C)C)cc1 (stereo not shown) [ACBI2]
47.5

* * *

- assayProcedure: Pharmacokinetic analyses in mouse
- Format: in vivo
- runConditions: NMRI, mouse, plasma, po, 30 mg/kg, NMRI mice, p.o., 30 mg/kg, Xenograft study; read-out: AUC0-inf
measure: AUC(0-inf) (µM·h)
Kindly provide the numeric value in µM·h only, without the unit symbol.

Indicate the recorded AUC(0-inf) value for this compound: `Cc1ncsc1-c1ccc([C@H](CCCCCN2CCC(c3ccc4c(c3)n(C3CCCC3)c3nc(=O)c5c(Br)cccc5n43)CC2)NC(=O)[C@@H]2C[C@@H](O)CN2C(=O)[C@@H](NC(=O)C2(F)CC2)C(C)(C)C)cc1`
21

* * *

- assayProcedure: Microsomal stability
- Type: in vitro ADME
- runConditions: rat liver microsomes
Here, each record is paired with measured Mic. Stab. Rat QH data.

Use these answered entries as a reference point.
compound	measure	observed
Cc1ncsc1-c1ccc([C@H](COC(C)CN2CCC(c3ccc4c(c3)n(C3CCCC3)c3nc(=O)c5c(Br)cccc5n43)CC2)NC(=O)[C@@H]2C[C@@H](O)CN2C(=O)[C@@H](NC(=O)C2(F)CC2)C(C)(C)C)cc1 (stereo partly shown)	Mic. Stab. Rat QH	<23.100 <23.100 <23.100%
Nc1cccc2c1c(=O)nc1n(C3CCCC3)c3ccccc3n21	Mic. Stab. Rat QH	88.170%
O=c1nc2n(C3CCCC3)c3cc(C4CCNCC4)ccc3n2c2cccc(Br)c12	Mic. Stab. Rat QH	<23.080%
Cc1ncsc1-c1ccc([C@H](CCCCN2CCC(c3ccc4c(c3)n(C3CCCC3)c3nc(=O)c5c(Br)cccc5n43)CC2)NC(=O)[C@@H]2C[C@@H](O)CN2C(=O)[C@@H](NC(=O)C2(F)CC2)C(C)(C)C)cc1	Mic. Stab. Rat QH	<23.100%
Cc1ncsc1-c1ccc([C@H](CCC(C)(C)CCN2CCC(c3ccc4c(c3)n(C3CCCC3)c3nc(=O)c5c(Br)cccc5n43)CC2)NC(=O)[C@@H]2C[C@@H](O)CN2C(=O)[C@@H](NC(=O)C2(F)CC2)C(C)(C)C)cc1	Mic. Stab. Rat QH	<23.100 <23.100%

Indicate the recorded Mic. Stab. Rat QH value for this compound: `Cc1ncsc1-c1ccc(CNC(=O)[C@@H]2C[C@@H](O)CN2C(=O)[C@@H](NC(=O)C2(F)CC2)C(C)(C)C)c(OCCOCCOCCOCCN2CCC(c3ccc4c(c3)n(C3CCCC3)c3nc(=O)c5c(Br)cccc5n43)CC2)c1`
40.440%

Indicate the recorded Mic. Stab. Rat QH value for this compound: Cc1ncsc1-c1ccc(C(CCC(C)CCN2CCC(c3ccc4c(c3)n(C3CCCC3)c3nc(=O)c5c(Br)cccc5n43)CC2)NC(=O)C2CC(O)CN2C(=O)C(NC(=O)C2(F)CC2)C(C)(C)C)cc1 (stereo not shown)
<23.100 <23.100 <23.100 <23.100%

Indicate the recorded Mic. Stab. Rat QH value for this compound: `Cc1ncsc1-c1ccc([C@H](CC[C@@H](C)CCN2CCC(c3ccc4c(c3)n(C3CCCC3)c3nc(=O)c5c(Br)cccc5n43)CC2)NC(=O)[C@@H]2C[C@@H](O)CN2C(=O)[C@@H](NC(=O)C2(F)CC2)C(C)(C)C)cc1`
<23.100 <23.100%

Indicate the recorded Mic. Stab. Rat QH value for this compound: `Cc1ncsc1-c1ccc([C@H](CC[C@H](C)CCN2CCC(c3ccc4c(c3)n(C3CCCC3)c3nc(=O)c5c(Br)cccc5n43)CC2)NC(=O)[C@@H]2C[C@H](O)CN2C(=O)[C@@H](NC(=O)C2(F)CC2)C(C)(C)C)cc1`
<23.100%

Indicate the recorded Mic. Stab. Rat QH value for this compound: `Cc1ncsc1-c1ccc(CNC(=O)[C@@H]2C[C@H](O)CN2C(=O)[C@@H](NC(=O)C2(F)CC2)C(C)(C)C)c(OCCN2CCC(c3ccc4c(c3)n(C3CCCC3)c3nc(=O)c5c(Br)cccc5n43)CC2)c1`
27.950%

Indicate the recorded Mic. Stab. Rat QH value for this compound: `Cc1ncsc1-c1ccc(CNC(=O)[C@@H]2C[C@@H](O)CN2C(=O)[C@@H](NC(=O)C2(F)CC2)C(C)(C)C)c(OCCCCN2CCC(c3ccc4c(c3)n(C3CCCC3)c3nc(=O)c5c(Br)cccc5n43)CC2)c1`
<23.080%

Indicate the recorded Mic. Stab. Rat QH value for this compound: `Cc1ncsc1-c1ccc([C@H](COCCCN2CCC(c3ccc4c(c3)n(C3CCCC3)c3nc(=O)c5c(Br)cccc5n43)CC2)NC(=O)[C@@H]2C[C@@H](O)CN2C(=O)[C@@H](NC(=O)C2(F)CC2)C(C)(C)C)cc1`
<23.100 <23.100%
